# study_target: Jak2 (UniProt O60674)
# Sequence (O60674 whole entry, looked up): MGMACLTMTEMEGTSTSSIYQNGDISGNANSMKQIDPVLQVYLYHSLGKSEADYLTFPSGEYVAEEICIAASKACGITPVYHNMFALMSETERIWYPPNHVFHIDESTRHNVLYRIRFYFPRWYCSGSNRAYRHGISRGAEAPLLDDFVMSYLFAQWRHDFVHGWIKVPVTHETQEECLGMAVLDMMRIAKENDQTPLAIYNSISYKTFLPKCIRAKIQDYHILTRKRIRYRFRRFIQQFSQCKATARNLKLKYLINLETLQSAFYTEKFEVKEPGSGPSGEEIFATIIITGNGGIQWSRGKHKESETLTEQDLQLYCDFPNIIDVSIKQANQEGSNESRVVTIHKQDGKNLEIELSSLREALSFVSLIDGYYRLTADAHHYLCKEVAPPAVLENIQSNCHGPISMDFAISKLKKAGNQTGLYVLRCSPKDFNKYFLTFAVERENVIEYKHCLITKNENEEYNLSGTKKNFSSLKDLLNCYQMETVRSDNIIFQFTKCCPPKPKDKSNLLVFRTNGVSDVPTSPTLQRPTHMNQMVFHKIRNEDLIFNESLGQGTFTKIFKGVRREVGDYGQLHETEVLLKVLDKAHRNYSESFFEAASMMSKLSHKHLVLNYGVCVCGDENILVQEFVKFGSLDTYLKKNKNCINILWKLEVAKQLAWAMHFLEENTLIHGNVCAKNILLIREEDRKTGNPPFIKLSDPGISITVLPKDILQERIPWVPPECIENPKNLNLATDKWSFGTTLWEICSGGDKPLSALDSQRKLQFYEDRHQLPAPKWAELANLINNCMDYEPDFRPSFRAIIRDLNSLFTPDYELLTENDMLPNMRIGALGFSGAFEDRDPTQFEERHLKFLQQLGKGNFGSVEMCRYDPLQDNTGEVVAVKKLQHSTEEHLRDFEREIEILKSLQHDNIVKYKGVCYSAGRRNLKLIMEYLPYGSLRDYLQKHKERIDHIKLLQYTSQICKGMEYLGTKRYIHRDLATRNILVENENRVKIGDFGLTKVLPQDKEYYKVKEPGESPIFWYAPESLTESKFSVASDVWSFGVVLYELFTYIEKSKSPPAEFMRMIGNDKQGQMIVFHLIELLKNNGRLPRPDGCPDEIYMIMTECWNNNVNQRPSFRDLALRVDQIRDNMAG
# measurement_protocol: phosphorylation enrichment, bacterial display (enrichment ratio); higher = better substrate or ligand; peptides without Tyr show the background;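 note: 11-residue human phosphosite peptides and single-mutation variants displayed on the E. coli surface, counted by deep sequencing, each peptide's frequency after selection divided by its frequency in the unselected input library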;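 note: frequency after pTyr selection over input frequency; kinase dosed for 20-30% of maximal phosphorylation in three min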
Threshold rule: phosphorylation enrichment greater than or equal to 1 is y; below that, n.

[
  {
    "sequence_code": "RHFTGCRIELQ [INSR_Y818_Y818C]",
    "qualitative_label": "n"
  },
  {
    "sequence_code": "EEALYYLTRVE [SET_Y119_H118Y]",
    "qualitative_label": "y"
  },
  {
    "sequence_code": "RFQKLYLDRNL [IGFALS_Y248_L244F]",
    "qualitative_label": "n"
  },
  {
    "sequence_code": "AVLQLYIFVAT [CFTR_Y1014_P1013L]",
    "qualitative_label": "y"
  },
  {
    "sequence_code": "ATVRPYRPFII [LRP5_Y1528_A1525V_YF]",
    "qualitative_label": "n"
  },
  {
    "sequence_code": "YLRTGYSVPYG [TGM1_Y370]",
    "qualitative_label": "n"
  },
  {
    "sequence_code": "LRTAVYHEILI [CREBBP_Y1450]",
    "qualitative_label": "y"
  },
  {
    "sequence_code": "NMSRIYSTTKV [ACE_Y151_A154T]",
    "qualitative_label": "n"
  },
  {
    "sequence_code": "AIKSFYAALID [RYR1_Y2426_M2423K]",
    "qualitative_label": "n"
  },
  {
    "sequence_code": "LAARFYNWVSF [FLT4_Y1231_YF]",
    "qualitative_label": "y"
  },
  {
    "sequence_code": "GSQERDFELVE [TSC2_Y407_Y407D]",
    "qualitative_label": "y"
  },
  {
    "sequence_code": "RESVSYLFSHV [PRPS1_Y311_G306R]",
    "qualitative_label": "y"
  },
  {
    "sequence_code": "SRGSSYNSIPK [FLNC_Y2625_S2626N]",
    "qualitative_label": "n"
  },
  {
    "sequence_code": "HHTDECEYDEL [TGM1_Y134_Y134C]",
    "qualitative_label": "y"
  },
  {
    "sequence_code": "SSVKPYRVYCD [FGB_Y266]",
    "qualitative_label": "n"
  },
  {
    "sequence_code": "GYITSYREEEQ",
    "qualitative_label": "y"
  },
  {
    "sequence_code": "VFSSDYFSFVL [USP24_Y2138_YF]",
    "qualitative_label": "y"
  },
  {
    "sequence_code": "ERPGVHTNVVE [F11_Y608_Y608H]",
    "qualitative_label": "n"
  },
  {
    "sequence_code": "SSTASYFEAPG [RFX2_Y108]",
    "qualitative_label": "n"
  },
  {
    "sequence_code": "KSLFHYRQYSA [CPS1_Y1491]",
    "qualitative_label": "n"
  },
  {
    "sequence_code": "ACQGKYTPSGQ [ALDOA_Y343]",
    "qualitative_label": "n"
  },
  {
    "sequence_code": "QLQVFYATLDQ [MIPEP_Y579]",
    "qualitative_label": "y"
  },
  {
    "sequence_code": "PLSGEYFTLQI [TP53_Y327_D324S]",
    "qualitative_label": "y"
  },
  {
    "sequence_code": "QDRTYYERVRT [SPEN_Y633_S635R]",
    "qualitative_label": "n"
  },
  {
    "sequence_code": "TLSGIYQFSIA [FOXL2_Y81_I84S_YF]",
    "qualitative_label": "n"
  },
  {
    "sequence_code": "GFITSYREEEQ",
    "qualitative_label": "y"
  },
  {
    "sequence_code": "AELKLYSGAQT [ZAP70_Y178_R175L]",
    "qualitative_label": "n"
  },
  {
    "sequence_code": "CPPKVYELMIA [ABL2_Y515_R519I]",
    "qualitative_label": "y"
  },
  {
    "sequence_code": "QTEAQYRFIFM [PTPN11_Y511_YF]",
    "qualitative_label": "y"
  },
  {
    "sequence_code": "EDKFMYLEFPQ [PTEN_Y240_F241L]",
    "qualitative_label": "y"
  }
]
